assayRemarks: Visual solubility of Form B
Assay type: physicochemical
conditionNotes: organic solvent or mixture, thermodynamic from solid; solvent Acetone; RT; read-out: Visual Solubility at RT
property: solubility

Sure, the documented solubility for CCCCCc1cc(OC(=O)c2ccc3ccccc3c2)c2c(c1)OC(C)(C)[C@@H]1CCC(C)=C[C@@H]21 [Form B] is 94 to 376 mg/mL

====

assayRemarks: Visual solubility of Form B
Format: physicochemical
conditionNotes: thermodynamic from solid; solvent Water; 50° C.; read-out: Visual Solubility at 50° C.
property: solubility

Reported solubility for CCCCCc1cc(OC(=O)c2ccc3ccccc3c2)c2c(c1)OC(C)(C)[C@@H]1CCC(C)=C[C@@H]21 [Form B] was < 24 mg/mL
